- experimental_target: Collagenase (Homo sapiens)
- Sequence (P03956 100-469): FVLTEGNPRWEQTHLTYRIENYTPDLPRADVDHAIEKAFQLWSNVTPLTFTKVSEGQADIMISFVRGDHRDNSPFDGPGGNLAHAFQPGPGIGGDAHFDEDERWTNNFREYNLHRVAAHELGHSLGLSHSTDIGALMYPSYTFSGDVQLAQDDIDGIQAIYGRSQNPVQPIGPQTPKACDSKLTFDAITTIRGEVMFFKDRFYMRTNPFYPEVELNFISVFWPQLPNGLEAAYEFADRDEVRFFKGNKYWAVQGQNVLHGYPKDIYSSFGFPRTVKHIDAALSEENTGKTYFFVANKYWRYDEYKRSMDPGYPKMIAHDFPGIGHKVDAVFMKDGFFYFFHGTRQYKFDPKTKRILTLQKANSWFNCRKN
- method_description: Enzyme inhibition assay (peptide substrate Dnp-Pro-Leu-Gly-Leu-Trp-Ala-D-Arg-NH2, Trp fluorescence), collagenase
- Format: biochemical
- condition_parameters: value printed in μM in the cell; pH 7.5, overnight; Ki (app) assumed to approximate true Ki

| sample_smiles | Ki |
| --- | --- |
| COC(=O)CCNC(=O)[C@H](CC1CCCCC1)NC(=O)[C@H](CCCc1ccccc1)CC(=O)O | 57 µM |

---

Each entry below carries its recorded pKi.
- experimental_target: Stromelysin-1 (Homo sapiens)
- Sequence (P08254 100-477, species assumed): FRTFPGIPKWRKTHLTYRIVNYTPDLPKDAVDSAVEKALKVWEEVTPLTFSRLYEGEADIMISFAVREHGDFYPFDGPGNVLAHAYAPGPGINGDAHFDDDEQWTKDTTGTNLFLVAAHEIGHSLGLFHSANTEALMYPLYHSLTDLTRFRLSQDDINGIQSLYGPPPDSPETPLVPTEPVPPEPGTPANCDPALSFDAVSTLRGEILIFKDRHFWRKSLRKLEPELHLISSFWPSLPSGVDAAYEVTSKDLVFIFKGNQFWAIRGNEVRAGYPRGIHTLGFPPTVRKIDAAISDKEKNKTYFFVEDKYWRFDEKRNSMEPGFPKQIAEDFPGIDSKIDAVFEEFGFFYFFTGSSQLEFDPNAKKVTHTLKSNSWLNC
- method_description: Enzyme inhibition assay (peptide substrate Dnp-Pro-Leu-Gly-Leu-Trp-Ala-D-Arg-NH2, Trp fluorescence), stromelysin
- Type: biochemical
- condition_parameters: pH 7.5, overnight; Ki (app) assumed to approximate true Ki
pKi: −log10 of the molar value.
assay_endpoint: pKi

| sample_smiles | endpoint_result |
| --- | --- |
| O=C(C[C@@H](CCCc1ccccc1)C(=O)N[C@@H](CC1CCCCC1)C(=O)NCCCN1CCOCC1)NO | 7.61 |
| NS(=O)(=O)c1ccc(CCNC(=O)[C@H](CC2CCCCC2)NC(=O)[C@H](CCCc2ccccc2)CC(=O)NO)cc1 | 8.23 |
| O=C(O)C[C@@H](CCCc1ccccc1)C(=O)N[C@@H](CC1CCCCC1)C(=O)NCCc1ccccc1 | 6.07 |

---

- experimental_target: Collagenase (Homo sapiens)
- Sequence (P03956 100-469): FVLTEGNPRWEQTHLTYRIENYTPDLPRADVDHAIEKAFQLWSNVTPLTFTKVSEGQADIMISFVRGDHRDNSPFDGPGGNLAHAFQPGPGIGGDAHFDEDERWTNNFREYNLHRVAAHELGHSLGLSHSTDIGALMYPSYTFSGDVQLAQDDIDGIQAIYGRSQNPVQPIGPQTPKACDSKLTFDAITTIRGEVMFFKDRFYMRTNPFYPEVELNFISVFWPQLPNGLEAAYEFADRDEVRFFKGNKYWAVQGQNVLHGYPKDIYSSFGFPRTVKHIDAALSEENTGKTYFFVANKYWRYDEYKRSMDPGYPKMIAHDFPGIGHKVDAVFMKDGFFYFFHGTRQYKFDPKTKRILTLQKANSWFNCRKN
- method_description: Enzyme inhibition assay (peptide substrate Dnp-Pro-Leu-Gly-Leu-Trp-Ala-D-Arg-NH2, Trp fluorescence), collagenase
- Type: biochemical
- condition_parameters: pH 7.5, overnight; Ki (app) assumed to approximate true Ki

| sample_smiles | Ki [µM] |
| --- | --- |
| O=C(C[C@@H](CCCc1ccccc1)C(=O)N[C@@H](CC1CCCCC1)C(=O)NCCCN1CCOCC1)NO | 0.21 |
| NS(=O)(=O)c1ccc(CCNC(=O)[C@H](CC2CCCCC2)NC(=O)[C@H](CCCc2ccccc2)CC(=O)NO)cc1 | 0.15 |
